biological target: TR66 antibody (CD3ε specific antibody, clone TR66); test: Binding analysis using peptide ELISA, biotinylated peptides on streptavidin plates, TR66; settings: TR66; mean of at least two individual measurements; two-site saturation binding model; read-out: Apparent KD, ELISA
Positions of bridges follow the written chain, without caps; N, C: chain ends. Residues, ends and D or L forms follow the SMILES beside them. *: point of attachment. Biotin = O=C1N[C@H]2[C@H](CS[C@H]2CCCCC(=O)*)N1
assay_readout: Kd (nM)
Express it in nM; write the number only.

Enquiry: Report Kd for C[C@H](N)C(=O)N[C@H]1CSSC[C@@H](C(=O)NCC(=O)NCC(=O)NCC(=O)N[C@@H](CO)C(=O)N[C@@H](CCCCNC(=O)CCCC[C@@H]2SC[C@@H]3NC(=O)N[C@@H]32)C(=O)O)NC(=O)[C@H](CCC(N)=O)NC(=O)[C@@H]2CCCN2C(=O)[C@H](CC(=O)O)NC(=O)[C@H](CCC(=O)O)NC(=O)[C@@H]2CCCN2C(=O)[C@H](CCCNC(=N)N)NC(=O)[C@H]([C@@H](C)O)NC1=O [aCD3-04-007, ACTRPEDPQC-GGGS-K(Bio)] (H-ACTRPEDPQCGGGSK(Biotin)-OH; disulfide 2-10)
Return: 299

###

target: TR66 antibody (CD3ε specific antibody, clone TR66); test: Binding analysis using peptide ELISA, biotinylated peptides on streptavidin plates, TR66; conditions: TR66; mean of at least two individual measurements; two-site saturation binding model; read-out: Apparent KD, ELISA
Positions of bridges follow the written chain, without caps; N, C: chain ends. Residues, ends and D or L forms follow the SMILES beside them. *: point of attachment. Biotin = O=C1N[C@H]2[C@H](CS[C@H]2CCCCC(=O)*)N1
assay_readout: pKd
Units for pKd: none; it is -log10 of a concentration expressed in mol/L.

Enquiry: Look up pKd of C[C@H](N)C(=O)N[C@H]1CSSC[C@@H](C(=O)NCC(=O)NCC(=O)NCC(=O)N[C@@H](CO)C(=O)N[C@@H](CCCCNC(=O)CCCC[C@@H]2SC[C@@H]3NC(=O)N[C@@H]32)C(=O)O)NC(=O)[C@H](Cc2ccc(O)cc2)NC(=O)[C@@H]2CCCN2C(=O)[C@H](CC(=O)O)NC(=O)CNC(=O)[C@@H]2CCCN2C(=O)[C@H](CCCNC(=N)N)NC(=O)[C@H]([C@@H](C)O)NC1=O [aCD3-04-009, ACTRPGDPYC-GGGS-K(Bio)] (H-ACTRPGDPYCGGGSK(Biotin)-OH; disulfide 2-10) and report it.
Return: 6.78

###

Quick reference for Kd among some molecules
target: TR66 antibody (CD3ε specific antibody, clone TR66); test: Binding analysis using peptide ELISA, biotinylated peptides on streptavidin plates, TR66; details: TR66; mean of at least two individual measurements; two-site saturation binding model; read-out: Apparent KD, ELISA
Positions of bridges follow the written chain, without caps; N, C: chain ends. Residues, ends and D or L forms follow the SMILES beside them. *: point of attachment. Biotin = O=C1N[C@H]2[C@H](CS[C@H]2CCCCC(=O)*)N1
Please respond with the number in nM and leave the unit unwritten.

molecule: C[C@H](N)C(=O)N[C@H]1CSSC[C@@H](C(=O)NCC(=O)NCC(=O)NCC(=O)N[C@@H](CO)C(=O)N[C@@H](CCCCNC(=O)CCCC[C@@H]2SC[C@@H]3NC(=O)N[C@@H]32)C(=O)O)NC(=O)[C@H](C)NC(=O)[C@@H]2CCCN2C(=O)[C@H](CC(=O)O)NC(=O)CNC(=O)[C@@H]2CCCN2C(=O)[C@H](CCCNC(=N)N)NC(=O)[C@H]([C@@H](C)O)NC1=O [aCD3-04-008, ACTRPGDPAC-GGGS-K(Bio)] (H-ACTRPGDPACGGGSK(Biotin)-OH; disulfide 2-10)
quantity_unit: nM
Kd: 164

We next turn to a different molecule, shown below.
Enquiry: Determine from records and report Kd for C[C@H](N)C(=O)N[C@H]1CSSC[C@@H](C(=O)NCC(=O)NCC(=O)NCC(=O)N[C@@H](CO)C(=O)N[C@@H](CCCCNC(=O)CCCC[C@@H]2SC[C@@H]3NC(=O)N[C@@H]32)C(=O)O)NC(=O)[C@H](CCC(N)=O)NC(=O)[C@@H]2CCCN2C(=O)[C@H](CC(=O)O)NC(=O)CNC(=O)[C@@H]2CCCN2C(=O)[C@H](CCCNC(=N)N)NC(=O)[C@H]([C@@H](C)O)NC1=O [aCD3 C7C-4, ACTRPGDPQC-GGGS-K(Bio)] (H-ACTRPGDPQCGGGSK(Biotin)-OH; disulfide 2-10)
Return: 370
